- experiment: Determination of logD (1-octanol / phosphate buffer pH 7.4)
- Format: physicochemical
- settings: 1-octanol/phosphate buffer, pH 7.4, pH 7.4, 1-octanol/phosphate buffer; read-out: Log D, pH 7.4
measuredEndpoint: logD

N#CC[C@H]1CN(c2nc(OC[C@@]34CCCN3C[C@H](F)C4)nc3c(F)c(-c4cccc5cccc(Cl)c45)ncc23)CCN1C(=O)/C=C/c1nc(C(F)F)no1 [Compound 20] : 2.61
Cc1nccc(/C=C/C(=O)N2CCN(c3nc(OC[C@@]45CCCN4C[C@H](F)C5)nc4c(F)c(-c5cccc6cccc(Cl)c56)ncc34)C[C@@H]2CC#N)n1 [Compound 140] : 3.45
C#Cc1c(F)ccc2cccc(-c3ncc4c(N5CCN(C(=O)/C=C/c6ccnc(C)n6)[C@@H](CC#N)C5)nc(OC[C@@]56CCCN5C[C@H](F)C6)nc4c3F)c12 [Compound 103] : 3.29
